tested on: Lovo cells; assay: Cancer cell proliferation inhibition (Cell Counting Kit-8), colorectal cancer cell line; format: cell-based; details: Homo sapiens, LoVo, 264 h, 1000 nM, cultured seven to 11 days; read-out: % inhibition rate LoVo
metric name: inhibition at 1 µM

// CSc1cc(C)[nH]c(=O)c1CNC(=O)c1cc(-c2ccc(N3C[C@@H](C)O[C@@H](C)C3)nc2)c2c(c1C)OC(C)([C@H]1CC[C@H](N(C)C3CCCCC3)CC1)O2 (stereo partly drawn) : inhibition at 1 µM value = ≥ 70%

// CSc1cc(C)[nH]c(=O)c1CNC(=O)c1cc(-c2ccc(N3C[C@@H](C)O[C@@H](C)C3)nc2)c2c(c1C)OC(C)([C@H]1CC[C@H](N3CC(O)C3)CC1)O2 (stereo partly drawn) : inhibition at 1 µM value = 30 to 70%

// COCCN(C)[C@H]1CC[C@H](C2(C)Oc3c(-c4ccc(N5CCC(F)(F)CC5)nc4)cc(C(=O)NCc4c(SC)cc(C)[nH]c4=O)c(C)c3O2)CC1 (relative stereo) : inhibition at 1 µM value = ≥ 70%
